Target: EGFR^L858R/T790M (Homo sapiens, UniProt P00533, L858R/T790M)
Sequence (P00533 25-1210 T790M/L858R): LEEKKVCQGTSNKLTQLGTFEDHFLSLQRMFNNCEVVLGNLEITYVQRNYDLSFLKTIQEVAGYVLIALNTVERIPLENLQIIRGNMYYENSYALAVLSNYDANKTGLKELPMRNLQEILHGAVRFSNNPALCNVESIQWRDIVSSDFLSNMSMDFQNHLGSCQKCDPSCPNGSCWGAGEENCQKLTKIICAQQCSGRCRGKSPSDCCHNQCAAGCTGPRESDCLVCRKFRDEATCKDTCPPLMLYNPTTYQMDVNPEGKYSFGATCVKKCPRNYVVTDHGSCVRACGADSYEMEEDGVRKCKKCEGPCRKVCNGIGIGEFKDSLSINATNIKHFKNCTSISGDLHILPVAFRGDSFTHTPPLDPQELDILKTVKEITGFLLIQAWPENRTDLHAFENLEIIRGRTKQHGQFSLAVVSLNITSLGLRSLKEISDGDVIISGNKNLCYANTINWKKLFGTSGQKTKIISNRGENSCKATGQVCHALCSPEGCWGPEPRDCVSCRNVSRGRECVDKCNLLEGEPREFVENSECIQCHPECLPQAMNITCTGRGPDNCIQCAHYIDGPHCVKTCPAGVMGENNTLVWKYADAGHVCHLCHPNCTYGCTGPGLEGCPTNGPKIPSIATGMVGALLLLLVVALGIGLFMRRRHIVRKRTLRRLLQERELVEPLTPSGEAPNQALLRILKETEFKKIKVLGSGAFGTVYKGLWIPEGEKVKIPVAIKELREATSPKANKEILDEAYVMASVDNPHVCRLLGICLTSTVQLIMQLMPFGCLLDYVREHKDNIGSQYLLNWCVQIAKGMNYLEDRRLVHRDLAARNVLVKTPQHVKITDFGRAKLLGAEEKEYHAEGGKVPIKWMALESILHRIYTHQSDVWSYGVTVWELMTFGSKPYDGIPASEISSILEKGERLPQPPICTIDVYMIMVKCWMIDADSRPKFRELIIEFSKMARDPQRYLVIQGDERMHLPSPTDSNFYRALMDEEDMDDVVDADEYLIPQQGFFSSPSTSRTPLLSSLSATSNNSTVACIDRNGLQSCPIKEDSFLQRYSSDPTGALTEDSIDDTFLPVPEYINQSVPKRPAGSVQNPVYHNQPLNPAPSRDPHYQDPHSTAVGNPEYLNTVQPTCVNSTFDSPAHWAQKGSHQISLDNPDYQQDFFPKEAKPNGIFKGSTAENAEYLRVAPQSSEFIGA
Assay: biochemical
Listing of recorded pIC50 by entry.
pIC50 is defined as minus the log10 of a concentration measured in mol/L.

// worked examples, pIC50 included
Look up pIC50 for this molecule: `Cn1cc(-c2nn([C@@H]3CCCN(C(=O)/C(C#N)=C/C4CC4)C3)c3ncnc(N)c23)c2ccccc21` 6.67

For the molecule `N#C/C(=C\C1CC1)C(=O)N1CCC[C@@H](n2nc(-c3cccc(C(F)(F)F)c3)c3c(N)ncnc32)C1` , what pIC50 is on record? 5.59

Item under review: `N#C/C(=C\C1CC1)C(=O)N1CCC[C@@H](n2nc(-c3ccccc3)c3c(N)ncnc32)C1` . Reported pIC50? 5.34

Request the reported pIC50 associated with `N#C/C(=C\C1CC1)C(=O)N1CCC[C@@H](n2nc(-c3cnc4[nH]ccc4c3)c3c(N)ncnc32)C1` 7.70

Read the next record carefully.
So what's the measured pIC50 for this one? `N#C/C(=C\C1CC1)C(=O)N1CCC[C@@H](n2nc(-c3cccc4ccccc34)c3c(N)ncnc32)C1` 7.10
